These entries and their values trace back to patent US5556864A.

System: adrenaline-α1 receptors
Test: Vasoconstriction experiment: relaxation of rat caudal artery strips precontracted with phenylephrine
Format: cell-based, rat (male Sprague-Dawley)
Settings: precontracted with phenylephrine 10^-6 M; concentration causing one half of maximum relaxation (papaverine 10^-4 M = maximum); 37 °C; read-out: IC50 adrenalin-α1
Procedure: Vasoconstriction Experiment Contractions of the rat caudal ateries were investigated by the method of Van Neuten et al. (J. Pharmacol. Exp. Ther., 218, 217-230, 1981). […] An initial optimum resting tension of 0.5 g was applied to the preparations, and isometric contractions were recorded with force-displacement transducers. […] The relaxation induced by each test compound was calculated as a percentage of the maximum relaxation induced by 10^-4 M of papaverine. […]
Counter-ions that a name gives are not always drawn.
Reported IC50 values for a set of compounds
Numbers only; they are read as nM.

- Compound: "COc1cc(CCc2ccccc2OCC[C@@H]2C[C@@H](O)CN2C)cc(OC)c1"
  Study system: "adrenaline-α1 receptors"
  IC50, nM: 5400

*Q* Which IC50 value is on record for CCOc1ccc(CCc2ccccc2OCCC2CCCN2C)cc1 (stereo not shown) [Example 101, hydrochloride] ?
*A* 3700

*Q* Which IC50 value is on record for COc1cccc(CCc2ccccc2OCCC2CCCCN2C)c1 (stereo not shown) [Example 48, hydrochloride] ?
*A* 2500

*Q* Which IC50 value is on record for CN1CCCC1CCOc1ccccc1CCc1cccc(Br)c1 (stereo not shown) [Example 98, hydrochloride] ?
*A* 2200

*Q* Which IC50 value is on record for CCOc1cccc(CCc2ccccc2OCCC2CCCN2C)c1 (stereo not shown) [Example 99, hydrochloride] ?
*A* 1300

*Q* Which IC50 value is on record for CN1CCCC1CCOc1ccccc1CCc1ccccc1F (stereo not shown) [Example 97, hydrochloride] ?
*A* 860

*Q* Which IC50 value is on record for COc1cccc(CCc2ccccc2OC[C@@H]2CCCN2C)c1 [Example 58, hydrochloride] ?
*A* 4900

###

molecular target: 5-HT2 receptors (Rattus norvegicus); construct: The caudal arteries were dissected free from connective tissue and cut into spiral strips; assay: Vasoconstriction experiment: relaxation of rat caudal artery strips precontracted with 5-HT; settings: precontracted with 5-HT 3×10^-6 M; concentration causing one half of maximum relaxation (papaverine 10^-4 M = maximum); 37 °C
Counter-ions that a name gives are not always drawn.
Reported IC50 values for a set of compounds
Numbers only; they are read as nM.

- Compound: "COc1cc(CCc2ccccc2OCC[C@@H]2C[C@@H](O)CN2C)cc(OC)c1 [Example 118]"
  Value unit: "nM"
  IC50: 2.6
- Compound: "CCOc1ccc(CCc2ccccc2OCCC2CCCN2C)cc1 (stereo not shown) [Example 101, hydrochloride]"
  Value unit: "nM"
  IC50: 3.7
- Compound: "COc1cccc(CCc2ccccc2OCC2CCCN(C)C2)c1 (stereo not shown) [Example 50, hydrochloride]"
  Value unit: "nM"
  IC50: 4.3

From here, focus on the item given below.
*Q* Which IC50 value is on record for COc1cccc(CCc2ccccc2OCC[C@@H]2CCCN2C)c1 [Example 113, hydrochloride] ?
*A* 2.2

###

Target: 5-HT2 receptors (Rattus norvegicus, UniProt P14842)
Construct: The caudal arteries were dissected free from connective tissue and cut into spiral strips; from tissue; host or cells: rat caudal artery, spiral strips
Sequence (P14842 whole entry): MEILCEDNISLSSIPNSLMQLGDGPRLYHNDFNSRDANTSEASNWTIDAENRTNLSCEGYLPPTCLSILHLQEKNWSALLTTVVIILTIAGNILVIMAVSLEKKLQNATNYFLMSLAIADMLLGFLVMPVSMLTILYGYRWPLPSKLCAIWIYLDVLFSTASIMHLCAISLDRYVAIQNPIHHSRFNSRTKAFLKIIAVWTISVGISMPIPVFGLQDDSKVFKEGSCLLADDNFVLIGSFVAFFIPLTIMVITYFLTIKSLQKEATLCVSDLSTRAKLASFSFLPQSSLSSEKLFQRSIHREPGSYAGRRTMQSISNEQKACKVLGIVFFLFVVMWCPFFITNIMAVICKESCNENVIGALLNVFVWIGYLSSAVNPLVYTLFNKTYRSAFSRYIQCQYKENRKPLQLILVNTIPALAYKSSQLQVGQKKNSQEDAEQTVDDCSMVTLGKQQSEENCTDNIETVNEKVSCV
Test: Vasoconstriction experiment: relaxation of rat caudal artery strips precontracted with 5-HT
Assay type: cell-based, rat (male Sprague-Dawley)
Details: precontracted with 5-HT 3×10^-6 M; concentration causing one half of maximum relaxation (papaverine 10^-4 M = maximum); 37 °C
Method: Vasoconstriction Experiment Contractions of the rat caudal ateries were investigated by the method of Van Neuten et al. (J. Pharmacol. Exp. Ther., 218, 217-230, 1981). […] An initial optimum resting tension of 0.5 g was applied to the preparations, and isometric contractions were recorded with force-displacement transducers. […] The relaxation induced by each test compound was calculated as a percentage of the maximum relaxation induced by 10^-4 M of papaverine. […]
Structures can show the parent of a compound that is named as a salt.
Observed property: IC50 (nM)
Numbers only; they are read as nM.

- Compound: "FC(F)Oc1cccc(CCc2ccccc2OCC2CCCNC2)c1 (stereo not drawn) [Example 123, hydrochloride]"
  Observed property: "IC50"
  Result: 5.7
- Compound: "CN1CCCC1CCOc1ccccc1CCc1ccccc1F (stereo not drawn) [Example 97, hydrochloride]"
  Observed property: "IC50"
  Result: 6.5

*Q* What reported IC50 corresponds to COc1cccc(CCc2ccccc2OC[C@@H]2CCCN2C)c1 [Example 58, hydrochloride] on 5-HT2 receptors (Rattus norvegicus, UniProt P14842)?
*A* 5
